# credit: patent US20090170906A1

Test system: HCV genotype 1b strain Con1 replicon (ET replicon line, Huh7 cells)
Assay name: ET replicon luciferase assay (HCV activity)
Assay type: cell-based
Condition set: Hepatitis C virus, Huh-7, Huh7 cells with HCV genotype 1b Con1 luciferase replicon, 72 hours incubation
Property: pIC50
pIC50 field: float, defined as -log10 of concentration (mol/L).

# input molecule: O=C(NC1CCCc2c1[nH]c1ccc(Br)cc21)c1ccccn1 (stereo not drawn) ; wanted: its pIC50
8.15

Request: O=C(N[C@@H]1CCCc2c1[nH]c1ccc(Cl)cc21)c1ccccc1F [Example 46B]
7.80

Request: O=C(NC1CCCc2c1[nH]c1ccc(Br)cc21)c1ccccc1 (stereo not drawn) [Example 14A]
7.77

Request: O=C(NC1CCCc2c1[nH]c1ccc(Br)cc21)c1ccccc1F (stereo not drawn)
8.22

Request: O=C(N[C@@H]1CCCc2c1[nH]c1ccc(Cl)cc21)c1ccccn1 [Example 45B]
8.22
